Target: Ribonucleoside-diphosphate reductase large subunit (Herpes simplex virus (type 1 / strain 17), UniProt P08543)
Experiment: Inhibitory activity was determined against HSV-1 Ribonucleoside diphosphate reductase
Design: species or system Human alphaherpesvirus 1
Numbered stars: 1 amine (or outer) side, 2 acyl side, 3 side chain; on linkers, the order of the positions; unused ones are H or OH. Square brackets hold non-standard residues; d marks the D form. Peptide text beside a SMILES is read from it. * marks the point of attachment. ξ: configuration not given here. X1 = CC(C)[C@@H](C(=O)[*:2])N(CCCCCCCCO[*:3])[*:1]; Desaminotyrosyl = O=C(CCc1ccc(O)cc1)*; Thr(3ξ) = CC(O)[C@H](N)C(=O)O
PROPERTY_LABEL: IC50 (µM)

MOLECULE	PROPERTY_LABEL	VALUE
CC(C)C[C@H](NC(=O)[C@H](CC(=O)O)NC(=O)[C@H](CC(N)=O)NC(=O)[C@@H](NC(=O)[C@@H](NC(=O)[C@H](C)NC(=O)CNC(=O)[C@H](C)NC(=O)[C@H](Cc1ccc(O)cc1)NC(=O)CCCCCCCN)C(C)C)C(C)C)C(=O)O	IC50	12
CC(=O)N[C@H](C(=O)N[C@H](C(=O)N[C@@H](CC(N)=O)C(=O)N[C@@H](CC(=O)O)C(=O)N[C@@H](CC(C)C)C(=O)O)C(C)C)C(C)C	IC50	400
CC[C@H](C)[C@H](NC(=O)[C@@H](NC(=O)CNC(=O)[C@H](C)NC(=O)CCc1ccc(O)cc1)C(C)O)C(=O)N[C@@H](CC(N)=O)C(=O)N[C@@H](CC(=O)O)C(=O)N[C@@H](CC(C)C)C(=O)O (some centres undefined) (Desaminotyrosyl-AG[Thr(3ξ)]INDL-OH)	IC50	13
CC(C)C[C@H](NC(=O)[C@H](CC(=O)O)NC(=O)[C@H](CC(N)=O)NC(=O)[C@@H](NC(=O)[C@@H](NCCCCCCCCOC(=O)[C@@H](N)Cc1ccc(O)cc1)C(C)C)C(C)C)C(=O)O (H-[X1](Tyr)VNDL-OH)	IC50	63

###

Molecular target: Ribonucleoside-diphosphate reductase large subunit (Herpes simplex virus (type 1 / strain 17), UniProt P08543)
Sequence (P08543 whole entry): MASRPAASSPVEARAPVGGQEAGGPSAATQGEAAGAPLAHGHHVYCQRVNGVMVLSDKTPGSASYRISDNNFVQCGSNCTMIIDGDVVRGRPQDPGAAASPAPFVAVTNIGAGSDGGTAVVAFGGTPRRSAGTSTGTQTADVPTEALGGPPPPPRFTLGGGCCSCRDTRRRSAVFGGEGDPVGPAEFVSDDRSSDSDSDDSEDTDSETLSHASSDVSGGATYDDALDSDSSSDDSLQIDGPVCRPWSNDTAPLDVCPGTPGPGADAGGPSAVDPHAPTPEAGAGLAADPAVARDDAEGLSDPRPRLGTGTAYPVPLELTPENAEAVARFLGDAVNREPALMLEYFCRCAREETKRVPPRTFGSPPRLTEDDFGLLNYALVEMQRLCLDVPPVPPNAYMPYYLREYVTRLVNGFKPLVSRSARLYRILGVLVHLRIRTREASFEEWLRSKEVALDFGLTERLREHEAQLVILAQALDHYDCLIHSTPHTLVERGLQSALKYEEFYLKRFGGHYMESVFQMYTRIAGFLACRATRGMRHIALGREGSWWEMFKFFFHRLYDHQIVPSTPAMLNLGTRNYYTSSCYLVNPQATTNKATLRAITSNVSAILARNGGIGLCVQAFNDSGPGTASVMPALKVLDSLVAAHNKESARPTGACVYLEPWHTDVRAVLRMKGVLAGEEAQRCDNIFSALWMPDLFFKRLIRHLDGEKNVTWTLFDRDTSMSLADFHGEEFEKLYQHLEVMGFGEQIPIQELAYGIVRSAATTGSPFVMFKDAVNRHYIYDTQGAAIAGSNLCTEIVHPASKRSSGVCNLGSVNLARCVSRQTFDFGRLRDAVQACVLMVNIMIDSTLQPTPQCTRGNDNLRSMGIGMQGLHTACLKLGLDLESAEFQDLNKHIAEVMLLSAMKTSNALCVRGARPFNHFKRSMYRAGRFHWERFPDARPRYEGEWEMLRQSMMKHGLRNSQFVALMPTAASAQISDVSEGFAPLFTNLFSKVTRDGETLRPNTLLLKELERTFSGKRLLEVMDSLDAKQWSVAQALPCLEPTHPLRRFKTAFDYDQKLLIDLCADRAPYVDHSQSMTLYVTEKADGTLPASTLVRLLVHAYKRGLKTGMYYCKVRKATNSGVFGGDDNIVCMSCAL
Test: Inhibitory activity was determined against HSV-1 Ribonucleoside diphosphate reductase
Parameters: species or system Human alphaherpesvirus 1
pIC50: −log10 of the molar value.
Returns t if the recorded pIC50 is greater than or equal to 4, and f otherwise.

> print(dat)
               substance  label
 1        H-YAGAVVNDV-OH      f
 2        H-YAGAVINDL-OH      t
 3        H-YAGAVVNDI-OH      f
 4         H-YGAVVNDL-OH      f
 5        H-LAGAVVNDL-OH      f
 6     H-STSYAGAVVNDL-OH      t
 7  H-ECRSTSYAGAVVNDL-OH      t
 8        H-YAGTVVNDL-OH      t
 9        H-HAGAVVNDL-OH      f
10        H-AAGAVVNDL-OH      f
11       H-YAGAVVNDLK-OH      f
12          H-GAVVNDL-OH      f
13           H-AVVNDL-OH      f
14         H-AGAVVNDL-OH      f
15        H-YAPAVVNDL-OH      t
16        H-YAGAVANDL-OH      f

###

Target: Ribonucleoside-diphosphate reductase large subunit (Herpes simplex virus (type 1 / strain 17))
Assay: Inhibitory activity against HSV-1 Ribonucleoside diphosphate reductase was determined
Design: species or system Human alphaherpesvirus 1
API: label(entry) gives TRUE if the entry's IC50 is strictly smaller than 60 µM; on equality or larger values it gives FALSE.

> print(dat)
          substance  label
 1   H-YAGPVVNDL-OH   TRUE
 2   H-LAGAVVNDL-OH  FALSE
 3   H-AAGAVVNDL-OH  FALSE
 4   H-YAGAVVNDI-OH   TRUE
 5  H-YAGAVVNDLK-OH   TRUE
 6   H-YAGAVINDL-OH   TRUE
 7     H-GAVVNDL-OH  FALSE
 8      H-AVVNDL-OH  FALSE
 9   H-YAGTVVNDL-OH   TRUE
10   H-FAGAVVNDL-OH   TRUE
11   H-YAPAVVNDL-OH   TRUE
12    H-AGAVVNDL-OH   TRUE
13   H-YAGAVVNDV-OH   TRUE
14  H-KYAGAVVNDL-OH   TRUE
15   H-HAGAVVNDL-OH   TRUE

###

Molecular target: Ribonucleoside-diphosphate reductase large subunit (Herpes simplex virus (type 1 / strain 17), UniProt P08543)
Assay: Inhibitory activity against HSV-1 Ribonucleoside diphosphate reductase was determined
Design: species or system Human alphaherpesvirus 1
Square brackets hold non-standard residues; d marks the D form. Peptide text beside a SMILES is read from it. * marks the point of attachment. ξ: configuration not given here. Desaminotyrosyl = O=C(CCc1ccc(O)cc1)*; Thr(3ξ) = CC(O)[C@H](N)C(=O)O

MOLECULE	IC50
CSCC[C@H](NC(=O)[C@@H](NC(=O)[C@@H](N)Cc1ccc(O)cc1)[C@@H](C)O)C(=O)N[C@@H](CC(C)C)C(=O)N[C@H](C(=O)N[C@H](C(=O)N[C@@H](CC(=O)O)C(=O)N[C@@H](CC(=O)O)C(=O)N[C@@H](CC(C)C)C(=O)O)C(C)C)C(C)C	36 µM
CC(C)C[C@H](NC(=O)[C@H](CC(=O)O)NC(=O)[C@H](CC(N)=O)NC(=O)[C@@H](NC(=O)[C@@H](NC(=O)[C@H](C)NC(=O)CNC(=O)[C@H](C)NC(=O)[C@H](Cc1ccc(O)cc1)NC(=O)[C@H](CO)NC(=O)[C@@H](NC(=O)[C@H](CO)NC(=O)[C@H](CCCN=C(N)N)NC(=O)[C@H](CS)NC(=O)[C@H](CCC(=O)O)NC(=O)[C@H](Cc1ccccc1)NC(=O)[C@H](Cc1ccccc1)NC(=O)[C@H](CC(=O)O)NC(=O)[C@@H](N)[C@@H](C)O)[C@@H](C)O)C(C)C)C(C)C)C(=O)O	55 µM
CC(=O)N[C@@H](Cc1ccc(O)cc1)C(=O)N[C@H](C)C(=O)NCC(=O)N[C@@H](C)C(=O)N[C@H](C(=O)N[C@H](C(=O)N[C@@H](CC(N)=O)C(=O)N[C@@H](CC(=O)O)C(=O)N[C@@H](CC(C)C)C(=O)O)C(C)C)C(C)C	60 µM
CC[C@H](C)[C@H](NC(=O)[C@@H](NC(=O)CNC(=O)[C@H](C)NC(=O)CCc1ccc(O)cc1)C(C)O)C(=O)N[C@@H](CC(N)=O)C(=O)N[C@@H](CC(=O)O)C(=O)N[C@@H](CC(C)C)C(=O)O (stereo not given in full) (Desaminotyrosyl-AG[Thr(3ξ)]INDL-OH)	13 µM
COc1ccc(C[C@H](N)C(=O)N[C@@H](C)C(=O)NCC(=O)N[C@@H](C)C(=O)N[C@H](C(=O)N[C@H](C(=O)N[C@@H](CC(N)=O)C(=O)N[C@@H](CC(=O)O)C(=O)N[C@@H](CC(C)C)C(=O)O)C(C)C)C(C)C)cc1	60 µM
